Every entry's value here was drawn from paper PMC3849266.

PROCEDURE_DETAILS: Biodistribution and in vivo binding specificity in PC-3 tumor-bearing BALB/c nu/nu mice
RUN_PARAMETERS: male, BALB/c nu/nu, mouse, stomach, iv, 45 pmol, total radioactivity, male BALB/c nu/nu mice with PC-3 xenografts, 45 pmol i.v., 6 h p.i.; read-out: Stomach uptake
MEASURED_QUANTITY: tissue uptake at 6 h
Don't forget the unit after the value.

Data point: CC(C)C[C@H](NC(=O)C[C@H](O)[C@H](CC(C)C)NC(=O)[C@H](Cc1c[nH]cn1)NC(=O)CNC(=O)[C@@H](NC(=O)[C@H](C)NC(=O)[C@H](Cc1c[nH]c2ccccc12)NC(=O)[C@H](CCC(N)=O)NC(=O)[C@@H](Cc1ccccc1)NC(=O)COCCOCCNC(=O)CN1CCN(CC(=O)O)CCN(CC(=O)O)CC1)C(C)C)C(N)=O [[^18F]AlF-NOTA-P2-RM26] ; tissue uptake at 6 h = 0.33 %ID/g
